For each of the molecules below, state its Kd.
# assay.target: Cytochrome P450 2E1 (Homo sapiens, UniProt P05181)
# Sequence (P05181 whole entry): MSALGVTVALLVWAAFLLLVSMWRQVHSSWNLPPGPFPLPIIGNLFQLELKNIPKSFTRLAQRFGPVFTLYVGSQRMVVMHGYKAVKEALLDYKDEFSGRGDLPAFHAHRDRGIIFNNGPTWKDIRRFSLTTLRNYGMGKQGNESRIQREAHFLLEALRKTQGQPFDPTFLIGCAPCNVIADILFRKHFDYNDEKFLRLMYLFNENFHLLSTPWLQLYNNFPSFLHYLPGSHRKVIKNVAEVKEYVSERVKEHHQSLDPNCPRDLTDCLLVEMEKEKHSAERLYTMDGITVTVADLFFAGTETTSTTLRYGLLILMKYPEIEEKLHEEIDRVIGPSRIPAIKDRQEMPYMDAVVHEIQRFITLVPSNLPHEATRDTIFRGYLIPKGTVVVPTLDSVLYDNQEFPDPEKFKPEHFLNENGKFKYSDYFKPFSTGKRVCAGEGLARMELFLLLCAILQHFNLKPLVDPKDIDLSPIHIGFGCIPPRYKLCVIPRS
Give your result as the value with the unit written after it.

Worked examples, 2 molecules total:
| molecule | Kd |
| --- | --- |
| O=C(OCC1CCCC1)c1cccnc1 [Auxiliary substrate, 20a] | 1600 nM |
| CC(C)CCCCOC(=O)c1cccnc1 [Auxiliary substrate, 11a] | 1800 nM |

Hi! Can you tell me Kd for each of these molecules?
1. CCCCCOC(=O)c1cccnc1 [Auxiliary substrate, 12a]
2. CCCCCCOC(=O)c1cccnc1 [Auxiliary substrate, 1a]
3. C=CCCOC(=O)c1cccnc1 [Auxiliary substrate, 18a]
4. CC/C=C/CCOC(=O)c1cccnc1 [Auxiliary substrate, 16a]

stdout:
5900 nM
1400 nM
12000 nM
1300 nM

Hi! Can you tell me Kd for each of these molecules?
1. CCCCCCCCOC(=O)c1cccnc1 [Auxiliary substrate, 14a]
2. CCC(C)CCOC(=O)c1cccnc1 (stereo not drawn) [Auxiliary substrate, 10a]

stdout:
["2100 nM", "2600 nM"]
